System: BT-549 breast
assay.overview: NCI-60 one-dose screen, 48 h (100 = growth as untreated, 0 = no growth, -100 = all killed)
measurement.context: 10 µM
Description: Growth inhibition of the BT-549 human tumor cell line is measured as a screen for anti-cancer activity. Cells are grown in 96 well plates and exposed to the test compound for 48 hours. Compounds are tested at a single concentration, which is 10^-5 M for most compounds. The reported endpoint is percent growth (GI% or GIPRCNT), where numbers from 0 - 100% represent growth inhibition, and numbers from -100% - 0 represent cell death. For example, a value of 40 represents 60% growth inhibition. […]
The panel holds about 83,000 compounds, 20% with a hit somewhere; the sample as a whole holds those more often.
attribute.measured: growth (%)
Respond with the bare value in %.

Some solved cases for reference:
{"columns": ["compound", "value.units", "growth"],
 "data": [
  ["COc1ccc(-c2ccc(/C=N/NC(=O)c3[nH]c4ccc(Br)cc4c3-c3ccccc3)s2)cc1", "%", 117],
  ["COc1ccc(/C=C/C(=O)c2ccc(N3CCN(C)CC3)cc2)c(C(F)(F)F)c1", "%", 40.7],
  ["CC(=O)C1=C(C)NC(SCC(=O)Nc2ccc(S(=O)(=O)Nc3cc(C)on3)cc2)=NC1c1ccccc1 (stereo not given)", "%", 114],
  ["CN1CCN(c2ccc(Nc3nc(NCCCNC(=O)c4ccccc4)c4sccc4n3)cc2)CC1", "%", 138],
  ["COc1ccc(NC(=O)Nc2ccc(OCC(=O)N=Nc3c(O)[nH]c4ccc([N+](=O)[O-])cc34)cc2)cc1", "%", 27.5],
  ["CCOC(=O)c1sc(N/N=C(\\C)c2ccc3c(c2)Nc2ccccc2S3)nc1C", "%", 48.1],
  ["O=C1Nc2ccc(Cl)cc2/C1=C/c1ccc(OCc2ccccn2)cc1", "%", 78.8],
  ["COc1ccc(-c2nc(-c3ccccc3)c(-c3ccccc3)n2-c2ccc(S(=O)(=O)Nc3ncccn3)cc2)cc1OC", "%", 68.3],
  ["O=C(CSc1nnc(-c2ccc3nc(-c4ccc(Cl)cc4)[nH]c3c2)o1)Nc1ccc(Br)cc1", "%", -69.8],
  ["COc1ccc(C=CC(=O)c2ccc(-n3c(C)nc4c(cnn4-c4ccccc4)c3=O)cc2)cc1", "%", 45]
]}

[Q] What does the data say about its growth? Entry: CC(C)C1=C[C@@]23CC[C@@H]4[C@](C)(CCC[C@]4(C)C(=O)NCc4ccccc4)[C@H]2C[C@@H]1[C@H]1C(=O)OC(=O)[C@H]13
[A] 69.6

[Q] What does the data say about its growth? Entry: COc1cc(C2CC(c3ccc(C)cc3)=Nc3c(N)nc(N)nc3N2)ccc1Oc1nc(Nc2ccc(F)cc2)nc(N(C)C)n1 (stereo not given)
[A] 65.4

[Q] What does the data say about its growth? Entry: Cc1ccc(CSc2nc(Cl)c(C#N)c(-c3ccc(F)cc3)n2)cc1
[A] 56.4

[Q] What does the data say about its growth? Entry: COc1ccc(-c2cc(C(=O)N=Nc3c(O)[nH]c4ccc(Br)cc34)c3ccccc3n2)cc1
[A] 96.3

[Q] What does the data say about its growth? Entry: O=c1cc(-c2ccccc2)oc2cc(OCCCNCc3ccccc3)cc(O)c12
[A] 46.8

* * *

System: HCC-2998 colon
assay.overview: NCI-60 one-dose screen, 48 h
measurement.context: 10 µM
This is part of a sample that, as a whole, favours compounds with a hit. Of some 83,000 tested, about 20% had one in any assay. Calls of active or inactive are those of the source. How the source made its calls: active means growth percent below 10; inactive means the rest.
Pick from active, inactive when you respond.

Sample answers from the record:
{"columns": ["structure.smiles", "category.label"],
 "data": [
  ["Cc1ccc(C(=O)N/C(=C2/OCCN2C)[P+](c2ccccc2)(c2ccccc2)c2ccccc2)cc1", "inactive"],
  ["COc1ccc(CN2[C@H](C(=O)NCCCCCCC(=O)NO)Cc3c([nH]c4ccccc34)[C@H]2C2CC2)cc1", "active"],
  ["CCN1CCN(Cc2ccc(C(=O)Nc3cccc(-c4cn(-c5ccc6oc(=O)ccc6c5)nn4)c3)cc2C(F)(F)F)CC1", "active"],
  ["CC(=O)Nc1ccc(-n2cnc3cc(-c4ccc(NS(C)(=O)=O)cc4)ccc32)cc1", "inactive"],
  ["COc1cc(/C=C/C(=O)c2cc(OC)c(OC)c(OC)c2)ccc1Oc1nc(Nc2ccc(F)cc2)nc(N(C)C)n1", "active"],
  ["COc1ccc(-c2cc(C(=O)N=Nc3c(O)[nH]c4ccccc34)c3ccccc3n2)cc1", "active"],
  ["COc1ccc(NC(=O)Nc2ccc(OCC(=O)N=Nc3c(O)[nH]c4ccc([N+](=O)[O-])cc34)cc2)cc1", "inactive"],
  ["CN1CCN(c2ccc(C(=O)/C=C/c3cc(Br)ccc3F)cc2)CC1", "active"]
]}

[Q] Which outcome did this test record for the molecule COc1cc2c3c(n(CCCNCCO)c(=O)c2cc1OC)-c1nc2c(cc1C3=O)OCO2 ?
[A] inactive

[Q] Which outcome did this test record for the molecule O=C(/C=C/Nc1ccc(F)cc1F)c1ccc2c(c1)Nc1ccccc1S2 ?
[A] inactive

[Q] Which outcome did this test record for the molecule N#Cc1ccc(-c2nn(-c3ccc(C(=O)O)cc3)cc2CNc2cc(Cl)cc(Cl)c2)cc1 ?
[A] active

* * *

Catalogue of growth values
Tested on: MCF7 breast
assay.overview: NCI-60 one-dose screen, 48 h (100 = growth as untreated, 0 = no growth, -100 = all killed)
measurement.context: 10 µM
Protocol: Growth inhibition of the MCF7 human tumor cell line is measured as a screen for anti-cancer activity. Cells are grown in 96 well plates and exposed to the test compound for 48 hours. Compounds are tested at a single concentration, which is 10^-5 M for most compounds. The reported endpoint is percent growth (GI% or GIPRCNT), where numbers from 0 - 100% represent growth inhibition, and numbers from -100% - 0 represent cell death. For example, a value of 40 represents 60% growth inhibition. […]
This is part of a sample that, as a whole, favours compounds with a hit. Of some 83,000 tested, about 20% had one in any assay. Calls of active or inactive are those of the source. Rule for the calls: active = growth percent below 10; inactive = the rest.

{"columns": ["compound", "study.target", "growth"],
 "data": [
  ["CC1(C)CC[C@]2(C(=O)NCCCNCCCCNCCCN)CC[C@]3(C)C(=CC[C@@H]4[C@@]5(C)Cc6c([nH]c7ccccc67)C(C)(C)[C@@H]5CC[C@]43C)[C@H]2C1", "MCF7 breast", "62.9% (inactive)"]
]}

Now look at this one.
[Q] What does the data say about its growth? Entry: CCC(C)S(=O)(=O)c1oc(-c2ccc(C)cc2)nc1S(=O)(=O)c1ccccc1 (stereo unspecified)
[A] -56.5% (active)

* * *

Tested on: EKVX NSCLC
assay.overview: NCI-60 one-dose screen, 48 h (100 = growth as untreated, 0 = no growth, -100 = all killed)
measurement.context: 10 µM
This is part of a sample that, as a whole, favours compounds with a hit. Of some 83,000 tested, about 20% had one in any assay.
Catalogue of growth values
Respond with the bare value in %.

{"columns": ["molecule", "value.units", "reported.value"],
 "data": [
  ["Cc1ccc(CNC(=O)Cc2ccc3c(c2)CN(C2CCC(=O)NC2=O)C3=O)cc1 (configuration not stated)", "%", 54.5],
  ["CCC(C)S(=O)(=O)c1oc(-c2ccc(C)cc2)nc1S(=O)(=O)c1ccccc1 (configuration not stated)", "%", -61],
  ["O=C(c1ccc(Cl)cc1)C1[C@H](c2ccccc2Br)[C@@H](c2ccccc2)NC12C(=O)Nc1ccc(Cl)cc12 (some centres not stated)", "%", 16.5]
]}

Now look at this one.
[Q] What does the data say about its growth? Entry: CC1(C)CC[C@]2(C(=O)O)CC[C@]3(C)C(=CC[C@@H]4[C@@]5(C)C/C(=C/c6ccncc6)[C@H](O)C(C)(C)[C@@H]5CC[C@]43C)[C@@H]2C1
[A] 30.1

* * *

Catalogue of growth values
System: NCI-H522 lung
assay.overview: NCI-60 one-dose screen, 48 h (100 = growth as untreated, 0 = no growth, -100 = all killed)
measurement.context: 10 µM
This is part of a sample that, as a whole, favours compounds with a hit. Of some 83,000 tested, about 20% had one in any assay.
Respond with the bare value in %.

Some solved cases for reference:
{"columns": ["structure.smiles", "value.units", "reported.value"],
 "data": [
  ["O=C(Cn1nc(-c2ccccc2)ccc1=O)NNC(=S)NC1CCCCC1", "%", 104],
  ["CC(=O)c1ccc(NC(=O)NCn2c(=O)[nH]c3ccccc3c2=O)cc1", "%", 90.2]
]}

[Q] What does the data say about its growth? Entry: Cc1cc2nc3c4ccccc4n(CCO)c3nc2cc1C
[A] 78.8

* * *

Test system: NCI-H226 lung
assay.overview: NCI-60 one-dose screen, 48 h (100 = growth as untreated, 0 = no growth, -100 = all killed)
measurement.context: 10 µM
This is part of a sample that, as a whole, favours compounds with a hit. Of some 83,000 tested, about 20% had one in any assay.
Assign class by growth: not lower than 60% means y; lower than 60% means n.

Sample answers from the record:
{"columns": ["compound", "study.target", "category.label"],
 "data": [
  ["CN1C(=O)N(C)C2SC(N/N=C/c3ccccc3F)=NC21 (centres undefined)", "NCI-H226 lung", "y"],
  ["O=C(CSc1nnc(-c2ccc3nc(-c4ccc(Cl)cc4)[nH]c3c2)o1)Nc1ccc(Cl)cc1", "NCI-H226 lung", "n"],
  ["Cc1ccc(-c2nc(Nc3ccc(S(N)(=O)=O)cc3)c3ccccc3n2)cc1", "NCI-H226 lung", "y"],
  ["Nc1nc(Nc2ccccc2)nn1Cc1c(Cl)cccc1Cl", "NCI-H226 lung", "n"],
  ["Cc1ccc(-c2nc3ccc(C(=O)N=Nc4c(O)[nH]c5ccc(Br)cc45)cc3[nH]2)cc1", "NCI-H226 lung", "y"]
]}

[Q] Quick check, growth >= 60%? O=C(O)CCCCCCCCCCN1C(=O)/C(=C/c2cnc(-c3ccccc3)s2)SC1=S
[A] y

[Q] Quick check, growth >= 60%? CC(=C(c1ccc(OCCCN(C)C)cc1)c1ccc(OCCCN(C)C)cc1)c1ccccc1
[A] n

[Q] Quick check, growth >= 60%? CC(=O)C1=C(C)NC(SCC(=O)Nc2ccc(S(=O)(=O)Nc3cc(C)on3)cc2)=NC1c1ccccc1 (centres undefined)
[A] y

[Q] Quick check, growth >= 60%? O=C1CCC(N2Cc3c(NCc4ccc(-c5ccccc5)cc4)cccc3C2=O)C(=O)N1 (centres undefined)
[A] n
